Type: physicochemical
Conditions: 37 °C, medium-chain mono-, di-, triglyceride, mean ± SD, triplicate
quantity: Thermodynamic solubility in Capmul MCM EP
Please state the value followed by its unit.

Query: What does the data say about its Thermodynamic solubility in Capmul MCM EP? Entry: O=C(Nc1ccc([N+](=O)[O-])cc1Cl)c1cc(Cl)ccc1O [niclosamide]
Reply: 10.1 ± 0.40 mg/g

Query: // next record CCC(C)n1ncn(-c2ccc(N3CCN(c4ccc(OCC5COC(Cn6cncn6)(c6ccc(Cl)cc6Cl)O5)cc4)CC3)cc2)c1=O (stereo not shown)
Reply: 5.60 ± 0.67 mg/g

Query: // next record O=C(C1CCCCC1)N1CC(=O)N2CCc3ccccc3C2C1 (stereo not shown)
Reply: 184.9 ± 12.4 mg/g

Query: // next record NC(=O)N1c2ccccc2C=Cc2ccccc21 [carbamazepine]
Reply: 55.5 ± 3.23 mg/g

Query: // next record COc1cc(C)c(/C=C/C(C)=C/C=C/C(C)=C/C(=O)O)c(C)c1C
Reply: 1.54 ± 0.10 mg/g

Query: // next record COc1ccc(Cl)cc1C(=O)NCCc1ccc(S(=O)(=O)NC(=O)NC2CCCCC2)cc1 [glibenclamide]
Reply: 5.49 ± 0.26 mg/g

Query: // next record CC(C)/N=c1\cc2n(-c3ccc(Cl)cc3)c3ccccc3nc-2cc1Nc1ccc(Cl)cc1
Reply: 16.3 ± 0.44 mg/g

Query: // next record C#C[C@]1(O)CC[C@H]2[C@@H]3CCc4cc(O)ccc4[C@H]3CC[C@@]21C
Reply: 56.3 ± 1.76 mg/g

Query: // next record Cc1cccc(Nc2ccccc2C(=O)O)c1C
Reply: 9.63 ± 0.40 mg/g

Query: // next record CC(=O)[C@H]1CC[C@H]2[C@@H]3CCC4=CC(=O)CC[C@]4(C)[C@H]3CC[C@]12C
Reply: 99.1 ± 2.94 mg/g

* * *

Assay type: physicochemical
Conditions: 37 °C, long-chain mono-, di-, triglyceride, mean ± SD, triplicate
This section presents compounds with their documented Thermodynamic solubility in Maisine 35-1 values.
Quick note: give the figure in mg/g, leave out the unit.

The examples below pair each entry with its known result.
{"columns": ["compound", "readoutNumber"],
 "data": [
  ["COc1ccc2c(c1OC)C(=O)O[C@@H]2[C@H]1c2c(cc3c(c2OC)OCO3)CCN1C [noscapine]", 5.36],
  ["COC1=CC(=O)C[C@@H](C)[C@]12Oc1c(Cl)c(OC)cc(OC)c1C2=O [griseofulvin]", 2.43],
  ["CC(=O)[C@H]1CC[C@H]2[C@@H]3CCC4=CC(=O)CC[C@]4(C)[C@H]3CC[C@]12C [progesterone]", 66.2],
  ["O=C(CCCN1CCC(O)(c2ccc(Cl)cc2)CC1)c1ccc(F)cc1 [haloperidol]", 3.57],
  ["OCCN(CCO)c1nc(N2CCCCC2)c2nc(N(CCO)CCO)nc(N3CCCCC3)c2n1 [dipyridamole]", 3.02]
]}

Query: What does the data say about its Thermodynamic solubility in Maisine 35-1? Entry: COc1ccc2c(c1)c(CC(=O)O)c(C)n2C(=O)c1ccc(Cl)cc1 [indomethacin]
Reply: 13.0

Query: // next record COC(=O)Nc1nc2ccc(Sc3ccccc3)cc2[nH]1 [fenbendazole]
Reply: 0.69

Query: // next record CCC(C)n1ncn(-c2ccc(N3CCN(c4ccc(OCC5COC(Cn6cncn6)(c6ccc(Cl)cc6Cl)O5)cc4)CC3)cc2)c1=O (stereo not drawn) [itraconazole]
Reply: 2.26

Query: // next record Cc1c(Cl)cccc1Nc1ccccc1C(=O)O [tolfenamic acid]
Reply: 14.1

Query: // next record CC(C)(Oc1ccc(C(=O)c2ccc(Cl)cc2)cc1)C(=O)O [fenofibric acid]
Reply: 7.38

Query: // next record Clc1ccccc1C(c1ccccc1)(c1ccccc1)n1ccnc1 [clotrimazole]
Reply: 75.4

* * *

Assay type: physicochemical
Details: 37 °C, surfactant (≤3% w/w water), mean ± SD, triplicate
quantity: Thermodynamic solubility in Cremophor EL (mg/g)
Quick note: give the figure in mg/g, leave out the unit.

Query: What does the data say about its Thermodynamic solubility in Cremophor EL? Entry: CC(C)/N=c1\cc2n(-c3ccc(Cl)cc3)c3ccccc3nc-2cc1Nc1ccc(Cl)cc1 [clofazimine]
Reply: 15.9

* * *

Format: physicochemical
Details: 37 °C, cosolvent, mean ± SD, triplicate
quantity: Thermodynamic solubility in Carbitol (mg/g)
Quick note: give the figure in mg/g, leave out the unit.

{"columns": ["molecule", "Thermodynamic solubility in Carbitol (mg/g)"],
 "data": [
  ["C#C[C@]1(O)CC[C@H]2[C@@H]3CCc4cc(O)ccc4[C@H]3CC[C@@]21C", 247.1],
  ["Cc1cccc(Nc2ccccc2C(=O)O)c1C", 43.6],
  ["CC(C)(Oc1ccc(C(=O)c2ccc(Cl)cc2)cc1)C(=O)O", 92.8]
]}

Query: What does the data say about its Thermodynamic solubility in Carbitol? Entry: CCN(CC)C(=S)SSC(=S)N(CC)CC
Reply: 162.6

Query: // next record CCCSc1ccc2nc(NC(=O)OC)[nH]c2c1
Reply: 5.99

Query: // next record O=C(C1CCCCC1)N1CC(=O)N2CCc3ccccc3C2C1 (stereo not drawn)
Reply: 116.9

Query: // next record CC(=O)[C@H]1CC[C@H]2[C@@H]3CCC4=CC(=O)CC[C@]4(C)[C@H]3CC[C@]12C
Reply: 67.02

Query: // next record COC(=O)Nc1nc2ccc(Sc3ccccc3)cc2[nH]1
Reply: 4.13

Query: // next record COC1=CC(=O)C[C@@H](C)[C@]12Oc1c(Cl)c(OC)cc(OC)c1C2=O
Reply: 18.9

Query: // next record NC(=O)N1c2ccccc2C=Cc2ccccc21 [carbamazepine]
Reply: 82.9

Query: // next record CCCCN(CCCC)CCC(O)c1cc2c(Cl)cc(Cl)cc2c2cc(C(F)(F)F)ccc12 (stereo not drawn)
Reply: 79.3

Query: // next record CC(C)/N=c1\cc2n(-c3ccc(Cl)cc3)c3ccccc3nc-2cc1Nc1ccc(Cl)cc1
Reply: 22.8

Query: // next record CCOC(=O)C1=C(C)NC(C)=C(C(=O)OC)C1c1cccc(Cl)c1Cl (stereo not drawn)
Reply: 217.2

Query: // next record COc1ccc(Cl)cc1C(=O)NCCc1ccc(S(=O)(=O)NC(=O)NC2CCCCC2)cc1 [glibenclamide]
Reply: 21.1

* * *

Assay type: physicochemical
Details: 37 °C, medium-chain mono-, di-, triglyceride, mean ± SD, triplicate
This section presents molecules with their documented Thermodynamic solubility in Capmul MCM EP values.
Quick note: give the figure in mg/g, leave out the unit.

{"columns": ["molecule", "readoutNumber"],
 "data": [
  ["Cc1c(Cl)cccc1Nc1ccccc1C(=O)O", 26.0]
]}

With those in mind, consider the next molecule.
Query: What does the data say about its Thermodynamic solubility in Capmul MCM EP? Entry: O=C(CCCN1CCC(O)(c2ccc(Cl)cc2)CC1)c1ccc(F)cc1
Reply: 13.4

* * *

Assay type: physicochemical
Settings: 37 °C, cosolvent, mean ± SD, triplicate
quantity: Thermodynamic solubility in Carbitol (mg/g)
Quick note: give the figure in mg/g, leave out the unit.

{"columns": ["compound", "readoutNumber"],
 "data": [
  ["CCC(C)n1ncn(-c2ccc(N3CCN(c4ccc(OCC5COC(Cn6cncn6)(c6ccc(Cl)cc6Cl)O5)cc4)CC3)cc2)c1=O (centres unmarked)", 6.30]
]}

Query: What does the data say about its Thermodynamic solubility in Carbitol? Entry: COc1ccc2c(c1)c(CC(=O)O)c(C)n2C(=O)c1ccc(Cl)cc1
Reply: 187.4

Query: // next record CCOc1nc2cccc(C(=O)OC(C)OC(=O)OC3CCCCC3)c2n1Cc1ccc(-c2ccccc2-c2nnn[nH]2)cc1 (centres unmarked)
Reply: 77.0

Query: // next record OCCN(CCO)c1nc(N2CCCCC2)c2nc(N(CCO)CCO)nc(N3CCCCC3)c2n1
Reply: 43.1

Query: // next record O=C(CCCN1CCC(O)(c2ccc(Cl)cc2)CC1)c1ccc(F)cc1
Reply: 27.2

Query: // next record O=C(O)c1cc(/N=N/c2ccc(S(=O)(=O)Nc3ccccn3)cc2)ccc1O
Reply: 16.4

Query: // next record O=C(O)c1cc(-c2ccc(F)cc2F)ccc1O
Reply: 286.3

Query: // next record O=C(Nc1ccc([N+](=O)[O-])cc1Cl)c1cc(Cl)ccc1O [niclosamide]
Reply: 49.6

* * *

This section presents molecules with their documented Thermodynamic solubility in Capmul MCM EP values.
Type: physicochemical
Conditions: 37 °C, medium-chain mono-, di-, triglyceride, mean ± SD, triplicate
Quick note: give the figure in mg/g, leave out the unit.

Query: What does the data say about its Thermodynamic solubility in Capmul MCM EP? Entry: Clc1ccccc1C(c1ccccc1)(c1ccccc1)n1ccnc1
Reply: 136.7

* * *

Type: physicochemical
Conditions: 37 °C, cosolvent, mean ± SD, triplicate
quantity: Thermodynamic solubility in Carbitol
Please state the value followed by its unit.

{"columns": ["molecule", "result"],
 "data": [
  ["COc1ccc2c(c1OC)C(=O)O[C@@H]2[C@H]1c2c(cc3c(c2OC)OCO3)CCN1C", "25.6 ± 1.00 mg/g"],
  ["CC(C)(Oc1ccc(CCNC(=O)c2ccc(Cl)cc2)cc1)C(=O)O [bezafibrate]", "43.0 ± 1.83 mg/g"],
  ["CCOc1nc2cccc(C(=O)O)c2n1Cc1ccc(-c2ccccc2-c2nnn[nH]2)cc1", "20.5 ± 1.26 mg/g"]
]}

Query: What does the data say about its Thermodynamic solubility in Carbitol? Entry: COc1cc(C)c(/C=C/C(C)=C/C=C/C(C)=C/C(=O)O)c(C)c1C
Reply: 3.52 ± 0.20 mg/g
